B1: CPEB3 Ribozyme (parent)
chain: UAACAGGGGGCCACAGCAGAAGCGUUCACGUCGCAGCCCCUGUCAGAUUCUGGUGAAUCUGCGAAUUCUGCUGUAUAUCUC

Variants of: B1
procedure details: self-cleavage, relative activity (ratio to wild type); higher = more cleavage; in vitro, sequencing
Grouping rule (self-cleavage): lower range (below 0.3), middle range (0.3 to below 0.6), upper range (0.6 or more)

residue_string=UAACAGGGGGCCACAGCAGAAGCGUUCACGUCGCAGCCCCUGUUAGAUUCUGGUGAAUCUGCGAAUUCUGCUGUAUUUCUC qualitative_label="lower range"

Q. Categorize the following entry: `UGACCGGGGGCCACAGCAGAAGCGUUCACGUCGCAGCCCCUGUCAGAUUCUGGUGAAUCUGCGAAUUCUGCUGUAUAUCUC`
A. upper range

Q. Categorize the following entry: `UAACAGGGGGCCACAGCAGAAGCGUUCACGUCGCAGCCCCUGUCAGAUUCUGGUGAGUCUGCGAAUUCUGCGGUAUAUCUC`
A. upper range

Q. Categorize the following entry: `UAACAGGGGGCCACAGCAGAAGCGUUCACGUCGCAGCCCCUGUGAGAUUCUGGUGAAUCUGCGAAUUCUGCUGUAUAUCAC`
A. middle range

Q. Categorize the following entry: `UAACGGGGAGCCACAGCAGAAGCGUUCACGUCGCAGCCCCUGUCAGAUUCUGGUGAAUCUGCGAAUUCUGCUGUAUAUCUC`
A. middle range

Q. Categorize the following entry: `UAACAGGGGGCCACAGCAGAAGCGUUUACGUCGCAGCCCCUGUCAGAUUCUGGUGAAUCUGCGAAUUCUGCAGUAUAUCUC`
A. lower range

Q. Categorize the following entry: `UAACAGGGGGCCACAGCAGAAGCGUUCACGUCGCAGCCCCUGUCUGAUUCUGGUGAAUCUGCGAAUUCCGCUGUAUAUCUC`
A. middle range

Q. Categorize the following entry: `UAACAGGGGGCCACAGUAGAAGCGUUCACUUCGCAGCCCCUGUCAGAUUCUGGUGAAUCUGCGAAUUCUGCUGUAUAUCUC`
A. lower range

Q. Categorize the following entry: `UAACAGGGGGCCACCGCAGAAGCGUUCACGUCGCAGCCCCUGUCAGAUUCUGGUGAGUCUGCGAAUUCUGCUGUAUAUCUC`
A. middle range

Q. Categorize the following entry: `UAACAGGGGGCCACGGCAGAAGCGUUCACGUCGCAGCCCCUGUCAGAUUCUGGUGAAUCUGCGAAUUCUACUGUAUAUCUC`
A. lower range

Q. Categorize the following entry: `UAACUGGGGGCCACAGCAGAAGCGUUCACGUCGCAGCCCUUGUCAGAUUCUGGUGAAUCUGCGAAUUCUGCUGUAUAUCUC`
A. upper range

Q. Categorize the following entry: `UAACAGGGAGCCACAGCAGAAGCGUUCACGCCGCAGCCCCUGUCAGAUUCUGGUGAAUCUGCGAAUUCUGCUGUAUAUCUC`
A. lower range

Q. Categorize the following entry: `UAACAGGGGGCCACAGCAGAAGCGUUCACGUCGCAGCCCCUGUCAGAUUCUGGUGAAUCUGCGAAUACUGCUCUAUAUCUC`
A. upper range

Q. Categorize the following entry: `UAACAGGGGGCCACAGCAGAAGCGUUCACGUCGCAGCCCCUGUCAGAUUCUGGUGAAUCAGCGAAUUCUGCUGUACAUCUC`
A. middle range

Q. Categorize the following entry: `UAACAGGGGGCCACAGCAGAAGCGUUCACGUCGCAGUCCAUGUCAGAUUCUGGUGAAUCUGCGAAUUCUGCUGUAUAUCUC`
A. lower range

Q. Categorize the following entry: `UAACAGGGGGCCACAGCAGAAGCGUUCACGUCGCAGCCCCUGUCAGAUUCUGGUGAGUCUGCGAAUUCUGCUGUAUAUCAC`
A. upper range

Q. Categorize the following entry: `UAACAGGGGGCCACAGCAGAAGCGUUCACGUCGCAGCCCCUGUCAGAUUCUGGUGCAUCUGCGAAUUCUGCUGUGUAUCUC`
A. lower range
